All figures here come from patent US20230257366A1.

Assay: Plasma stability in monkey plasma (LC-MS/MS)
Assay type: in vitro ADME
Details: monkey, plasma
measured endpoint: half-life at 1 µM (h)
Please reply with the bare figure in h and do not write the unit itself.

# input Entry N#Cc1ccc(N2CCN(Cc3ccc(COc4cccc5c4CN([C@H]4CCC(=O)NC4=O)C5=O)cc3)CC2)c(F)c1 [CC-92480, reference compound] has what half-life at 1 µM?
# output 3.32

----------
Test: Pharmacokinetic evaluation in mice after intragastric administration (LC/MS/MS)
Assay type: in vivo
Details: female, mouse, in vivo, po, 2 mg/kg
measured endpoint: half-life (h)
All answers are understood in h, so give the number only.

# input half-life lookup needed for N#Cc1ccc(N2CCN(Cc3ccc(COc4cccc5c4CN([C@H]4CCC(=O)NC4=O)C5=O)cc3)CC2)c(F)c1 [CC-92480, reference compound] , thanks.
# output 1.3

----------
Assay: Pharmacokinetic evaluation in mice after intragastric administration (LC/MS/MS)
Format: in vivo
Conditions: female, mouse, in vivo, po, 2 mg/kg
measured endpoint: Vd/F

# input For the compound shown here, N#Cc1ccc(N2CCN(Cc3ccc(COc4cccc5c4CN([C@H]4CCC(=O)NC4=O)C5=O)cc3)CC2)c(F)c1 [CC-92480, reference compound] , give the reported Vd/F.
# output 1.96 L/kg

----------
Assay: Pharmacokinetic evaluation in mice after intragastric administration (LC/MS/MS)
Assay type: in vivo
Details: female, mouse, plasma, po; mice, intragastric, 2 mg/kg; read-out: Plasma concentration Cmax
measured endpoint: Cmax (ng/mL)
Response body: numeric value in ng/mL, unit text excluded.

# input Dear colleague, I am looking for the recorded Cmax of the following compound: N#Cc1ccc(N2CCC(Sc3ccc(COc4cccc5c4CN([C@H]4CCC(=O)NC4=O)C5=O)cn3)CC2)c(F)c1
# output 799

----------
Assay: Pharmacokinetic evaluation in mice after intragastric administration (LC/MS/MS)
Format: in vivo
Conditions: female, mouse, in vivo, po, 2 mg/kg
measured endpoint: Cmax (ng/mL)
The reply should be a number in ng/mL, with the unit left off.

# input Suppose we examine the compound N#Cc1ccc(N2CCN(Cc3ccc(COc4cccc5c4CN([C@H]4CCC(=O)NC4=O)C5=O)cc3)CC2)c(F)c1 [CC-92480, reference compound] ; what Cmax value has been reported?
# output 692

----------
Test: Pharmacokinetic evaluation in mice after intragastric administration (LC/MS/MS)
Assay type: in vivo
Settings: female, mouse, plasma, po; mice, intragastric, 2 mg/kg; read-out: Half-life T½ (converted)
measured endpoint: half-life (h)
Reply numerically in h, unit not repeated.

# input Suppose we examine the compound N#Cc1ccc(N2CCC(Sc3ccc(COc4cccc5c4CN([C@H]4CCC(=O)NC4=O)C5=O)cn3)CC2)c(F)c1 [Compound 6] ; what half-life value has been reported?
# output 2.9

----------
Assay: Pharmacokinetic evaluation in mice after intragastric administration (LC/MS/MS)
Assay type: in vivo
Conditions: female, mouse, in vivo, po, 2 mg/kg
measured endpoint: MRT
Reply with a number, then the unit it belongs to.

# input Returns the measured MRT for the input compound. Input: N#Cc1ccc(N2CCN(Cc3ccc(COc4cccc5c4CN([C@H]4CCC(=O)NC4=O)C5=O)cc3)CC2)c(F)c1 [CC-92480, reference compound]
# output 2.3 h

----------
Experiment: Plasma stability in monkey plasma (LC-MS/MS)
Assay type: in vitro ADME
Details: cryopreserved monkey plasma; monkey plasma, 37° C., 1 μM; read-out: T1/2 (min)/monkey
measured endpoint: half-life at 1 µM

# input Recorded half-life at 1 µM for N#Cc1ccc(N2CCC(Sc3ccc(COc4cccc5c4CN([C@H]4CCC(=O)NC4=O)C5=O)cn3)CC2)c(F)c1 , please?
# output 806 min
